metric: melting point

compound	melting point
O=C(/C=C/c1c[nH]c2ccccc12)NCCCCCC(=O)NO	92 to 94 °C
COc1ccc(C(=O)NCCCCCC(=O)NO)cc1OC	133 °C
O=C(CCCCCNC(=O)c1ccc(Br)o1)NO	122 to 124 °C

Tell me measured melting point for "O=C(CCCCCNC(=O)[C@H](Cc1c[nH]c2ccccc12)NC(=O)CCCc1c[nH]c2ccccc12)NO" please. 94 to 96 °C

Tell me measured melting point for "O=C(CCCCNC(=O)c1ccc2ccccc2c1)NO" please. 155 to 156 °C

Tell me measured melting point for "O=C(CCCCCNC(=O)CCc1ccco1)NO" please. 127 to 128 °C

Each recorded value in this set is attributed to patent US7569724B2.
